assay method text: Selectivity index, ratio of CC50 for cytotoxicity against African green monkey Vero cells to IC50 for antiviral activity against SARS-CoV-2 infected in African green monkey Vero cells
Format: toxicity, cell-based
assay conditions: read-out: Ratio CC50/IC50
Listing: selectivity ratio of selected molecules

Recorded results for 2 molecules are shown here.
C=C1[C@@H](O)[C@@]2(O)OC[C@]34[C@H]2[C@@]2(C)[C@H](O)C(=O)C=C(C)[C@@H]2C[C@H]3OC(=O)[C@H](O)[C@@]14O [EURYCOMANONE] : > 6.68
CCC(CC)COC(=O)[C@H](C)N[P@](=O)(OC[C@H]1O[C@@](C#N)(c2ccc3c(N)ncnn23)[C@H](O)[C@@H]1O)Oc1ccccc1 [REMDESIVIR] : > 4.44

Exam item: # get_value(readout='selectivity ratio', item= `CC1=CC(=O)[C@@H](O)[C@]2(C)[C@H]3[C@]4(O)OC[C@@]35[C@@H](C[C@@H]12)OC(=O)[C@H](O)[C@@]5(O)[C@](C)(O)[C@H]4O` )
Marked response: > 20.7

====

assay method text: Cytotoxicity against human HCT-8 cells assessed as redcution in cell viability incubated for 96 hrs by PrestoBlue reagent based assay
Format: toxicity
Label Satisfied when CC50 at 96 h is strictly below 50 µM; at or above that, label Not satisfied.

Observe how each entry below is paired with its result.
CC1=CC(=O)[C@@H](O)[C@]2(C)[C@H]3[C@]4(O)OC[C@@]35[C@@H](C[C@@H]12)OC(=O)C[C@H]5[C@](C)(O)[C@H]4O : Satisfied
C=C1[C@@H](O)[C@@]2(O)OC[C@]34[C@H]2[C@@]2(C)[C@H](O)C(=O)C=C(C)[C@@H]2C[C@H]3OC(=O)[C@H](O)[C@@]14O : Not satisfied
CC1=CC(=O)[C@@H](O)[C@]2(C)[C@H]3[C@]4(O)OC[C@@]35[C@@H](C[C@@H]12)OC(=O)[C@H](O)[C@@]5(O)[C@]1(CO1)[C@H]4O : Not satisfied
O=c1ccc2nccc3c4ccc(O)cc4n1c23 : Not satisfied
COc1ccc2c3ccnc4ccc(=O)n(c2c1)c43 : Satisfied
CCC(CC)COC(=O)[C@H](C)N[P@](=O)(OC[C@H]1O[C@@](C#N)(c2ccc3c(N)ncnn23)[C@H](O)[C@@H]1O)Oc1ccccc1 : Not satisfied
O=C(O)CCc1nccc2c1[nH]c1ccccc12 : Not satisfied
CC1=CC(=O)[C@@H](O)[C@]2(C)C3[C@@H](O)[C@@H]4OC(=O)[C@@H]([C@H]4C)[C@]3(C)C(=O)C[C@@H]12 (stereo partly drawn) : Not satisfied

Exam item: # strict comparison: is reported CC50 at 96 h < 50 µM? input = `O=c1ccc2nccc3c4ccc(O[C@@H]5O[C@H](CO)[C@@H](O)[C@H](O)[C@H]5O)cc4n1c23`
Marked response: Satisfied

Exam item: How about this compound: `COc1ccc2c(c1)[nH]c1c(CCC(=O)O)nccc12`
Marked response: Not satisfied

Exam item: // same read-out, input: `O=c1ccc2nccc3c4ccccc4n1c23`
Marked response: Satisfied

====

Recorded selectivity ratio values for a group of compounds are listed next.
assay method text: Selectivity index, ratio of CC50 for cytotoxicity against African green monkey Vero cells to IC50 for antiviral activity against SARS-CoV-2 infected in African green monkey Vero cells
Type: toxicity, cell-based
assay conditions: read-out: Ratio CC50/IC50

Exam item: I'd like to know its selectivity ratio. The compound in question is `CC1=CC(=O)[C@@H](O)[C@]2(C)[C@H]3[C@]4(O)OC[C@@]35[C@@H](C[C@@H]12)OC(=O)[C@H](O)[C@@]5(O)[C@]1(CO1)[C@H]4O`
Marked response: > 10.7

Exam item: Follow-up entry: CC1=CC(=O)[C@@H](O)[C@]2(C)C3[C@@H](O)[C@@H]4OC(=O)[C@@H]([C@H]4C)[C@]3(C)C(=O)C[C@@H]12 (stereo partly drawn)
Marked response: 112

Exam item: Try the compound `CC1=CC(=O)[C@@H](O)[C@]2(C)[C@H]3[C@]4(O)OC[C@@]35[C@@H](C[C@@H]12)OC(=O)C[C@H]5[C@](C)(O)[C@H]4O`
Marked response: 61

From: ChEMBL document CHEMBL5215003
